Listing of recorded Ki by entry.
# ASSAY_SYSTEM: Mu-type opioid receptor (Cavia porcellus)
# Sequence (P97266 whole entry): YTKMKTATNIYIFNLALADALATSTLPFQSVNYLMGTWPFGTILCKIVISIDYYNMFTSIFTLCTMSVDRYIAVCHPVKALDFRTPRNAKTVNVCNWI
# PROCEDURE_TEXT: Displacement of [3H]DAMGO from mu opioid receptor in guinea pig brain membranes after 120 mins by scintillation counting analysis
# Type: cell membranes, Membrane
Answer with a number only, understood to be in µM.

{"COMPOUND": "O=C(Cc1ccc(Cl)c(Cl)c1)N1CCOC2CN(Cc3ccccc3)CC(N3CCCC3)C21 (racemic)", "MEASUREMENT_UNIT": "µM", "Ki": 0.261}

// next entry
Ki measured on O=C(Cc1ccc(Cl)c(Cl)c1)N1CCOC2CN(C3CCCC3)CC(N3CCCC3)C21 (racemic) = 0.447

----------
# ASSAY_SYSTEM: Delta-type opioid receptor (Rattus norvegicus)
# Sequence (P33533 whole entry): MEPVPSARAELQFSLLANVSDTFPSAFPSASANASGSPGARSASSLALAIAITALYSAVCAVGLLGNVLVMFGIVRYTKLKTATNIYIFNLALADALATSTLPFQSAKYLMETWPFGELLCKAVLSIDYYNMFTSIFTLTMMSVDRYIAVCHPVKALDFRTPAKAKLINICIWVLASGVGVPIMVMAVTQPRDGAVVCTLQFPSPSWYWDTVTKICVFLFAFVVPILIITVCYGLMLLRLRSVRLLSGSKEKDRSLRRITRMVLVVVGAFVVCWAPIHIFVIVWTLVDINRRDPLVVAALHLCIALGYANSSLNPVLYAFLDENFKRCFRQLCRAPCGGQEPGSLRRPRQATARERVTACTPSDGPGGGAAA
# PROCEDURE_TEXT: Displacement of [3H]DPDPE from delta opioid receptor in Sprague-Dawley rat brain membranes after 120 mins by scintillation counting analysis
PROPERTY_LABEL: pKi
pKi here is simply -log10 of the concentration when that concentration is written in mol/L.

{"COMPOUND": "O=C(Cc1ccc(Cl)c(Cl)c1)N1CCOC2CN(Cc3cccnc3)CC(N3CCCC3)C21 (racemic)", "ASSAY_SYSTEM": "Delta-type opioid receptor (Rattus norvegicus)", "MEASUREMENT": 6.18}

// next entry
pKi measured on O=C(Cc1ccc(Cl)c(Cl)c1)N1CCOC2CN(C3CCCC3)CC(N3CCCC3)C21 (racemic) = 6.14

----------
# ASSAY_SYSTEM: Sigma intracellular receptor 2 (Rattus norvegicus, UniProt Q5U3Y7)
# Sequence (Q5U3Y7 whole entry): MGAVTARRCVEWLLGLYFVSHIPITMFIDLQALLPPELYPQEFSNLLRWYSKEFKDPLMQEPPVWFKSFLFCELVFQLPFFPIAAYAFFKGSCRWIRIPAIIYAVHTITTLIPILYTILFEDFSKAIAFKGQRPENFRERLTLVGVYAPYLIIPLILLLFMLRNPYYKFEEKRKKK
# PROCEDURE_TEXT: Displacement of [3H]DTG from sigma2 receptor in Sprague-Dawley rat liver membranes after 120 mins by scintillation counting analysis
pKi: −log10 of the molar value.
PROPERTY_LABEL: pKi

{"COMPOUND": "O=C(Cc1ccc(Cl)c(Cl)c1)N1CCOC2CN(C3CCCC3)CC(N3CCCC3)C21 (racemic)", "ASSAY_SYSTEM": "Sigma intracellular receptor 2 (Rattus norvegicus, UniProt Q5U3Y7)", "PROPERTY_LABEL": "pKi", "MEASUREMENT": 7.35}
{"COMPOUND": "O=C1COC2CN(C(=O)Cc3ccc(Cl)c(Cl)c3)CC(N3CCCC3)C2N1 (racemic)", "ASSAY_SYSTEM": "Sigma intracellular receptor 2 (Rattus norvegicus, UniProt Q5U3Y7)", "PROPERTY_LABEL": "pKi", "MEASUREMENT": "< 6.00"}
{"COMPOUND": "O=C(Cc1ccc(Cl)c(Cl)c1)N1CCOC2CN(Cc3ccccc3)CC(N3CCCC3)C21 (racemic)", "ASSAY_SYSTEM": "Sigma intracellular receptor 2 (Rattus norvegicus, UniProt Q5U3Y7)", "PROPERTY_LABEL": "pKi", "MEASUREMENT": "< 6.00"}
{"COMPOUND": "O=C(Cc1ccc(Cl)c(Cl)c1)N1CCOC2CN(Cc3cccnc3)CC(N3CCCC3)C21 (racemic)", "ASSAY_SYSTEM": "Sigma intracellular receptor 2 (Rattus norvegicus, UniProt Q5U3Y7)", "PROPERTY_LABEL": "pKi", "MEASUREMENT": "< 6.00"}
{"COMPOUND": "CCCCN1CC2OCCN(C(=O)Cc3ccc(Cl)c(Cl)c3)C2C(N2CCCC2)C1 (racemic)", "ASSAY_SYSTEM": "Sigma intracellular receptor 2 (Rattus norvegicus, UniProt Q5U3Y7)", "PROPERTY_LABEL": "pKi", "MEASUREMENT": 6.50}
{"COMPOUND": "O=C(Cc1ccc(Cl)c(Cl)c1)N1CC2OCCN(C(=O)Cc3ccc(Cl)c(Cl)c3)C2C(N2CCCC2)C1 (racemic)", "ASSAY_SYSTEM": "Sigma intracellular receptor 2 (Rattus norvegicus, UniProt Q5U3Y7)", "PROPERTY_LABEL": "pKi", "MEASUREMENT": "< 6.00"}
{"COMPOUND": "CCN1CC2OCCN(C(=O)Cc3ccc(Cl)c(Cl)c3)C2C(N2CCCC2)C1 (racemic)", "ASSAY_SYSTEM": "Sigma intracellular receptor 2 (Rattus norvegicus, UniProt Q5U3Y7)", "PROPERTY_LABEL": "pKi", "MEASUREMENT": 6.99}
{"COMPOUND": "CN1CC2OCCN(C(=O)Cc3ccc(Cl)c(Cl)c3)C2C(N2CCCC2)C1 (racemic)", "ASSAY_SYSTEM": "Sigma intracellular receptor 2 (Rattus norvegicus, UniProt Q5U3Y7)", "PROPERTY_LABEL": "pKi", "MEASUREMENT": "< 6.00"}

pKi measured on O=C(Cc1ccc(Cl)c(Cl)c1)N1CCOC2CNCC(N3CCCC3)C21 (racemic) = < 6.00
